System: TO-3-N3 (biotin conjugate)
Assay: pull-down binding Z-score (relative to library population); higher = stronger binding
Settings: RNA library: Library-2
readoutType: pull-down binding Z-score
Number, no unit, nothing else.

The sequence listed as UGUGACCUGGAGCAGCUCAGGAGGGCUUCCUGGGUGAGGUGGCAGGUUACA [hsa-mir-4311] shows pull-down binding Z-score equal to 0.566

---
pull-down binding Z-score in this record for GUCUGAUAAUGGACCCCAAAAUCAGCGAAAUGCACCCCGCAUUACGUUUGGUGGACCCUCAGAU : -0.49

Measured pull-down binding Z-score, UAGACAAUGGUUUCAUCAUUUCGUCUG [hsa-mir-4427] : -0.317

The recorded pull-down binding Z-score for GUAUGAGUGUAUUGGUCUUCAUAA [hsa-mir-9-2] is -0.226

The recorded pull-down binding Z-score for GCUGAGGUUGCGUUGACGCUCGC [hsa-mir-1292] is 0.0445

pull-down binding Z-score measured on GGGGAUGGACUGGAAGUGGGCAGCAUGGAGCUGACCUUCAUCAUGGCUUGGCCAACAUAAUGCCUC [hsa-mir-1236] = 1.72

Recorded pull-down binding Z-score (sequence UGCUUCCACAUAGCAGCA [hsa-mir-4752] ): -0.423

sequence GUUGACAGGACACGAGUAACUCGUCUAUCUUCUGCAGGCUGCUUACGGUUUCGUCCGUGUUGCAGCCGAUCAUCAGC , pull-down binding Z-score observed: -0.282

The reported value for UGGCACAGAUCCAAUACCUUCUGUCCCC [hsa-mir-6810] in terms of pull-down binding Z-score is 0.0686

* * *

Test system: TO-N3 (biotin conjugate)
Assay: pull-down binding Z-score (relative to library population); higher = stronger binding
Conditions: RNA library: Library-2
readoutType: pull-down binding Z-score
Reply: number alone, nothing else.

Before answering, review these 4 worked examples.
sequence GUGAACAUUGCAU [hsa-mir-4301] , pull-down binding Z-score observed: -0.356

// pull-down binding Z-score lookup, sequence = UGCUCCUUGAACAGGAGGAGCA [hsa-mir-4708] , result: -0.683

Entry CCGGGCGCUGCUCUGACCCCUCGU [hsa-mir-187] , pull-down binding Z-score reported as 0.875

Notebook: CCUAUCAAUGG [IAV_invivo_PB2_1_Motif_26+IAV_invivo_PB2_1_Motif_26] , pull-down binding Z-score read as 0.11

Next:
Reported pull-down binding Z-score ( GACUUAUGAAAACUAUAGGUC ) = -0.299

// field: pull-down binding Z-score; key: CAUAAACGAACUUAUGGAUUUGUUUAUG ; value = -0.904

Entry UGUCAUUGAAAGUAAUAGCA [hsa-mir-548h-3] — recorded pull-down binding Z-score = -0.141

Item: GGCGGUGAAGCUCC [hsa-mir-4532] | pull-down binding Z-score: -0.104

Sure, the documented pull-down binding Z-score for GGAGUCCUCUAGACACC [hsa-mir-6510] is 0.373

Value of measured pull-down binding Z-score for the entry GCCGCGGAAGAAGGGGAAGCGC [hsa-mir-6720] : 1.61

Documented pull-down binding Z-score of UAGAGGUACAACAGUACUUUUA : -1.12

# sequence AGUCUUGUAGUGCGUUGUUCGUUCUAUGAAGACU ; its pull-down binding Z-score = -0.932

* * *

System: TO-N3 (biotin conjugate)
Experiment: pull-down binding Z-score (relative to library population); higher = stronger binding
Conditions: RNA library: Library-2
Output Condition met for pull-down binding Z-score not less than 0.07; output Condition not met otherwise.

Recorded results for 8 sequences are shown here.
[in] In plain terms: is recorded pull-down binding Z-score at least 0.07 for GGAUGUCAAUCC [IAV_invivo_PB1_2_Motif_2+IAV_invivo_PB1_2_Motif_2] ?
[out] Condition met

[in] Can UCACACUCAAAGGCGGUGCACCAACAAAGGUUACUUUUGGUGAUGACACUGUGAUAGAAGUGCAAGGUUACAAGAGUGUGAAUAUCACUUUUGAACUUGAUGA [DMSMaPseq_invitro_SARS-CoV-2_Multi_10_ComplexLevel_1] be said to have pull-down binding Z-score at or above 0.07?
[out] Condition met

[in] Item UUACAGAAGAGGUUGGCCACACAGAUCUAAUGGCUGCUUAUGUAG with pull-down binding Z-score of 0.07 or above?
[out] Condition not met

[in] Does the sequence GCAGCCUUCUGCCUUUGGCUUUCUGAAGCGAGCUGA [hsa-mir-7158] have recorded pull-down binding Z-score that is 0.07 or more?
[out] Condition met

[in] // inclusive: pull-down binding Z-score at least 0.07? input: UUGAGGAGAGCACCACAGUGGUCAUCACACAG [hsa-mir-622]
[out] Condition met

[in] Does the reported pull-down binding Z-score for CCAAAUCCUUUUCUGAUUUGG [hsa-mir-4520-2] fall at or above the 0.07 mark?
[out] Condition not met

[in] Assess whether reported pull-down binding Z-score for GCCACAUGAGCUGGGCCUCGUGGGC [hsa-mir-770] sits at 0.07 or higher.
[out] Condition met

[in] State whether the measured pull-down binding Z-score reaches 0.07, counting equality as reaching it, for GGAUUGUACAGAAAGUGUGUUAAAUCC [SHAPE_invivo_SARS-CoV-2_Motif_47]
[out] Condition not met

Next, consider the following sequence.
[in] Does the sequence GGGGUGGCUGCGGGCCUUCUGAAGGUCUCCC [hsa-mir-662] have recorded pull-down binding Z-score that is 0.07 or more?
[out] Condition met

* * *

Tested on: TO-N3-2 (biotin conjugate)
Assay: pull-down binding Z-score (relative to library population); higher = stronger binding
Conditions: RNA library: Library-2
Cut-off -0.4 on pull-down binding Z-score, inclusive. At or above means Met; below means Not met.

[in] Kindly determine if pull-down binding Z-score recorded for GACUUCCAUGACAUGAAAUAGGAAGUC [hsa-mir-616] is above or exactly -0.4.
[out] Not met

[in] Evaluate UUUGUCAUUACUUUAAUUACUUUACGUUUCAUUAAUGACAAA [hsa-mir-548h-4] : pull-down binding Z-score at minimum -0.4?
[out] Not met

[in] hey, is pull-down binding Z-score for this one >= -0.4? UAAGGAGAGUGUUCAGACAUUCUUUAAGCUUG [DMSMaPseq_invitro_SARS-CoV-2_Motif_43]
[out] Not met

[in] # bool: pull-down binding Z-score of UUUUGCAGUUGAAAGUAAUGGCAAAG [hsa-mir-548ao] >= -0.4
[out] Met

[in] Is it the case that CCCAUUUAAAAUAUGGAA [hsa-mir-548ai] has pull-down binding Z-score reaching or exceeding -0.4?
[out] Met

[in] Form field: pull-down binding Z-score at least -0.4? Entry: GGAGCUGGCUGCUGGCCUCAGUUCU [hsa-mir-5001]
[out] Met

[in] # check: pull-down binding Z-score of AUUGUUGCCUCUGCAUGUUACAAU [hsa-mir-8066] is greater than or equal to -0.4
[out] Not met

[in] Is pull-down binding Z-score for CAAGGGCUCUACUGUCCUUUCAGGAGAGCCCUUG [hsa-mir-4776-2] at or above -0.4?
[out] Not met

[in] Hello, I need to know if UCAGACACAUCAGAUCCCUUAUCUGUAAAAUGGGCAUGA [hsa-mir-640] has measured pull-down binding Z-score not below -0.4. Thanks!
[out] Met

[in] I'd appreciate it if you could say whether UAUGCCUACAAAAUCCCUCCAGACUGGCAUA [hsa-mir-4666a] has pull-down binding Z-score at least equal to -0.4.
[out] Not met

---
[in] Is pull-down binding Z-score at least -0.4? Consider AAGGUACAGCAGAUACUUACCUG [U1snRNP5ss-22]
[out] Met

[in] pull-down binding Z-score >= -0.4 for UUUUUGUUUUUGAGACAGAGU [hsa-mir-4472-2] ?
[out] Not met

[in] Kindly determine if pull-down binding Z-score recorded for CUGCCUAUAUGGAAG is above or exactly -0.4.
[out] Not met

[in] Assess whether reported pull-down binding Z-score for UCAUACUGAAAGCGAACUUCAGUGUGA [IAV_invivo_NS1_NEP_8_Motif_9+IAV_invivo_NS1_NEP_8_Motif_9] sits at -0.4 or higher.
[out] Not met

[in] Can CUGGGGGCAAUCAGUUUCUGG [IAV_invivo_HA_4_Motif_20+IAV_invivo_HA_4_Motif_20] be said to have pull-down binding Z-score at or above -0.4?
[out] Met

[in] Please tell me: is the sequence GUUGUAGACGGUUGUAAUUCAUCAACUUGUAUGAUGUGUUACAAACGUAAUAGAGC [SHAPE_invivo_SARS-CoV-2_Motif_153] at or over -0.4 in terms of pull-down binding Z-score?
[out] Not met

[in] Exam item: decide whether the reported pull-down binding Z-score for AUAGUUUAGAAUUACAUCAAGGGAGAUAACUGU [hsa-let-7a-2] is at least -0.4.
[out] Met

[in] // inclusive: pull-down binding Z-score at least -0.4? input: GGCACCUACGAUACCCAGUGCC [hsa-mir-3116-2]
[out] Met

[in] Determine whether this sequence has pull-down binding Z-score no lower than -0.4: GAAGGUCUUAAUGACAACCUUC [SHAPE_invitro_SARS-CoV-2_Motif_33]
[out] Not met
